Each recorded value in this set is attributed to patent US20080227797A1.

Target Of Assay: recombinant Human Phosphodiesterase B2 (PDE4B2) (Homo sapiens, UniProt Q07343)
Sequence (Q07343 1-564 isoform Q07343-2): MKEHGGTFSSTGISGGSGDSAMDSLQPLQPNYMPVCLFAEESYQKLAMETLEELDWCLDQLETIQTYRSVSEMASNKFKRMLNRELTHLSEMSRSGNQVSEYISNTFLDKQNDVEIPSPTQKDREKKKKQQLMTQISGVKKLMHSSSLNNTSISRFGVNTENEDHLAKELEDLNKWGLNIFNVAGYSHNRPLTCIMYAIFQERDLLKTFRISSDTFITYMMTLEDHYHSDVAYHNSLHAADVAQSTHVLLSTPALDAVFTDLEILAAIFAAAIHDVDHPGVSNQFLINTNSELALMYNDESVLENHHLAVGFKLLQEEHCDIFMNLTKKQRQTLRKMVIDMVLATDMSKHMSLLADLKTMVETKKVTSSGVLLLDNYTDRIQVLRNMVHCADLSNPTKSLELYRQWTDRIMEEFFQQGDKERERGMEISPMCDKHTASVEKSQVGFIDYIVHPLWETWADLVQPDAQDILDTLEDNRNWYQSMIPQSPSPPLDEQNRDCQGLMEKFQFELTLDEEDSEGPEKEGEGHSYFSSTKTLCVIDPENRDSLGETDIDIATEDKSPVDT
Test Description: Human Phosphodiesterase B2 Alpha Screen Assay
Test Context: cAMP substrate, Alpha Screen cAMP kit, 60 minutes at room temperature
Recorded Metric: IC50 (nM)

Compound	Unit Tag	IC50
COC(=O)c1cccc(-n2c(=O)n([C@H]3CC[C@@H](NC(=O)c4cccs4)CC3)c(=O)c3cc(F)cnc32)c1	nM	4.8
CSc1cccc(-n2c(=O)n([C@H]3CC[C@@H](NC(=O)c4cc(CO)ccc4O)CC3)c(=O)c3cc(F)cnc32)c1	nM	2.9
O=C(c1cc(CO)ccc1O)N1CC[C@@H](n2c(=O)c3cc(F)cnc3n(-c3ccc(F)c(F)c3)c2=O)C1	nM	71.8
CSc1cccc(-n2c(=O)n([C@H]3CC[C@@H](NC(=O)c4cc(Cl)ccc4O)CC3)c(=O)c3cc(F)cnc32)c1	nM	3.2

1. O=C(N[C@H]1CC[C@@H](n2c(=O)c3cc(F)cnc3n(-c3ccc(F)c(F)c3)c2=O)CC1)C1(O)CC1
2. O=C(N[C@H]1CC[C@@H](n2c(=O)c3cc(F)cnc3n(-c3ccc(F)c(F)c3)c2=O)CC1)c1cn2ccccc2n1
3. O=C(N[C@H]1CC[C@@H](n2c(=O)c3cc(F)cnc3n(-c3ccc(F)c(F)c3)c2=O)CC1)c1ccsc1
4. O=C(N[C@H]1CC[C@@H](n2c(=O)c3cc(F)cnc3n(-c3ccc(F)c(F)c3)c2=O)CC1)C(O)c1ccccc1 (relative stereo)
Arrange the 4 compounds by rising IC50, starting with the smallest. I would appreciate it if you listed the labels in the requested order. 2, 4, 3, 1
(2: 0.5 nM, 4: 0.9 nM, 3: 3.39 nM, 1: 18.6 nM)

A. CSc1cccc(-n2c(=O)n([C@H]3CC[C@@H](NC(=O)C(C)(C)O)CC3)c(=O)c3cc(F)cnc32)c1
B. CS(=O)(=O)c1cccc(-n2c(=O)n([C@H]3CC[C@@H](NC(=O)CO)CC3)c(=O)c3cc(F)cnc32)c1
C. O=C(N[C@H]1CC[C@@H](n2c(=O)c3cc(F)cnc3n(-c3ccc(F)c(F)c3)c2=O)CC1)c1cc(F)ccc1O
D. O=C([C@H](O)c1ccccc1)N1CC[C@@H](n2c(=O)c3cc(F)cnc3n(-c3ccc(F)c(F)c3)c2=O)C1
Arrange the 4 compounds by rising IC50, starting with the smallest. I would appreciate it if you listed the labels in the requested order. C, A, D, B

I. COCC(=O)N[C@H]1CC[C@@H](n2c(=O)c3cc(F)cnc3n(-c3cccc(C(=O)OC)c3)c2=O)CC1
II. COc1ccc(C(=O)N[C@H]2CC[C@@H](n3c(=O)c4cc(F)cnc4n(-c4ccc(F)c(F)c4)c3=O)CC2)cc1O
III. O=C(N[C@H]1CC[C@@H](n2c(=O)c3cc(F)cnc3n(-c3ccc(F)c(F)c3)c2=O)CC1)c1cc[nH]c1
IV. O=C(N[C@H]1CC[C@@H](n2c(=O)c3cc(F)cnc3n(-c3ccc(F)c(F)c3)c2=O)CC1)c1cccc2cccnc12
Arrange the 4 compounds by rising IC50, starting with the smallest. I would appreciate it if you listed the labels in the requested order. IV, II, III, I
(IV: 0.4 nM, II: 1 nM, III: 6.68 nM, I: 11.1 nM)
